procedure-summary: Acute lethal toxicity to marine copepods (ISO 14669)
condition-parameters: Acartia tonsa (marine copepod), in vivo, other: aquatic phase (waterborne exposure), 48 h LC50, definitive test, seawater, Water Accommodated Fraction, nominal concentrations
test-readout: LC50 at 48 h (µg/mL)

INSERT INTO measurements (item_smiles, value) VALUES
  ('NCCO', 434);

----------
procedure-summary: Acute lethal toxicity to marine copepods (ISO 14669)
condition-parameters: Acartia tonsa (marine copepod), in vivo, other: aquatic phase (waterborne exposure), 48 h LC50, range-finding test, Water Accommodated Fraction, nominal concentrations
test-readout: LC50 at 48 h (µg/mL)

INSERT INTO assay_data (compound, value) VALUES
  ('NCCO [monoethanolamine]', 550);
